// provenance: paper PMC10082216

- PROCEDURE SUMMARY: TD-6450 phase I clinical study (SAD/MAD): pharmacokinetics
- Format: in vivo, human
- CONDITION DESCRIPTION: male, human, in vivo, TD-6450 concentration
REPORTED METRIC: concentration at 144 h (ng/mL)
Lab book: enter the figure in ng/mL, no units written.

// lookup concentration at 144 h for CNC(=O)N1C[C@@H](C)N(c2ccc(C(=O)Nc3ccc(-c4ccc(-c5c[nH]c([C@@H]6CCCN6C(=O)[C@@H](NC(=O)OC)C(C)C)n5)cc4)c(OC(F)(F)F)c3)cn2)C[C@@H]1C [TD-6450]
15.1

====

- PROCEDURE SUMMARY: TD-6450 phase I clinical study (SAD/MAD): pharmacokinetics
- Type: in vivo, human
- CONDITION DESCRIPTION: human, in vivo, 1.5 mg; Male subjects, SAD arm NCT02022306, Dose 1.50, 6 Hours; read-out: Concentration
REPORTED METRIC: concentration at 6 h (ng/mL)
Numbers only; they are read as ng/mL.

Record request: concentration at 6 h value, item CNC(=O)N1C[C@@H](C)N(c2ccc(C(=O)Nc3ccc(-c4ccc(-c5c[nH]c([C@@H]6CCCN6C(=O)[C@@H](NC(=O)OC)C(C)C)n5)cc4)c(OC(F)(F)F)c3)cn2)C[C@@H]1C
1.07

====

- PROCEDURE SUMMARY: TD-6450 phase I clinical study (SAD/MAD): pharmacokinetics
- Assay type: in vivo, human
- CONDITION DESCRIPTION: female, human, plasma, oral, 5 mg, Female subjects, SAD arm NCT02022306, Dose 5.00, 168 Hours; read-out: Concentration
REPORTED METRIC: concentration at 168 h (ng/mL)
The reply should be a number in ng/mL, with the unit left off.

What concentration at 168 h value was documented for this compound, CNC(=O)N1C[C@@H](C)N(c2ccc(C(=O)Nc3ccc(-c4ccc(-c5c[nH]c([C@@H]6CCCN6C(=O)[C@@H](NC(=O)OC)C(C)C)n5)cc4)c(OC(F)(F)F)c3)cn2)C[C@@H]1C [TD-6450] ?
0.61

====

- PROCEDURE SUMMARY: TD-6450 phase I clinical study (SAD/MAD): pharmacokinetics
- Assay type: in vivo, human
- CONDITION DESCRIPTION: female, human, plasma, oral, 30 mg, Female subjects, SAD arm NCT02022306, Dose 30.00, 72 Hours; read-out: Concentration
REPORTED METRIC: concentration at 72 h (ng/mL)
Output spec: scalar in ng/mL, unitless text.

Requested read-out: concentration at 72 h. Entry: CNC(=O)N1C[C@@H](C)N(c2ccc(C(=O)Nc3ccc(-c4ccc(-c5c[nH]c([C@@H]6CCCN6C(=O)[C@@H](NC(=O)OC)C(C)C)n5)cc4)c(OC(F)(F)F)c3)cn2)C[C@@H]1C [TD-6450]
16.1

====

- PROCEDURE SUMMARY: TD-6450 phase I clinical study (SAD/MAD): pharmacokinetics
- Assay type: in vivo, human
- CONDITION DESCRIPTION: female, human, plasma, oral, 60 mg, Female subjects, SAD arm NCT02022306, Dose 60.00, 24 Hours; read-out: Concentration
REPORTED METRIC: concentration at 24 h (ng/mL)
Entry rule: numbers only, all in ng/mL.

Please look up its concentration at 24 h: CNC(=O)N1C[C@@H](C)N(c2ccc(C(=O)Nc3ccc(-c4ccc(-c5c[nH]c([C@@H]6CCCN6C(=O)[C@@H](NC(=O)OC)C(C)C)n5)cc4)c(OC(F)(F)F)c3)cn2)C[C@@H]1C [TD-6450]
38.9
